Data provenance is patent US20150299188A1.

System: FLAP (5-lipoxygenase activating protein)
Experiment: In vitro binding test: displacement of [3H]-7-chloro-3-(5-((3-fluoropyridin-2-yl)methoxy)-2-methylphenyl)-3,4-dihydroquinazolin-2(1H)-one from Sf9 microsome fractions
Set-up: species or system human and mouse
Conditions: Sf9 microsome fractions expressing FLAP; 100% = radioligand binding with 10 μM sodium 3-(3-(tert-butylsulfanyl)-1-(4-chlorobenzyl)-5-isopropyl-1H-indol-2-yl)-2,2-dimethylpropanoate, 0% = DMSO; test compound concentration not given
Experimental: As an assay buffer, 100 mM Tris-HCl, pH 7.5, 140 mM NaCl, 2 mM EDTA, 0.5 mM dithiothreitol, 5% glycerol, 0.05% Tween20 was used. Sf9 microsome fractions expressing human and mouse FLAPs were dispensed by 50 μL to a 96-well plate at 2 μg/mL. […] The GF/B Unifilter plate was dried at 37° C., Microscint 0 was added and measured by TopCount NXT (PerkinElmer). […]
test readout: inhibitory rate (%)
Hi! Could you send only the number? It should be in %, unit omitted.

The observed inhibitory rate (%) for Cc1cc2c(cc1N1Cc3ccc(C(=O)N4CCOCC4)cc3NC1=O)OC(c1ncccc1F)CC2 (stereo not shown) [Example 183] when tested with FLAP (5-lipoxygenase activating protein) stands at 96

The observed inhibitory rate (%) for COc1nccc2c1CN(c1cc(OCc3ncccc3F)ccc1C)C(=O)N2 [Example 307] when tested with FLAP (5-lipoxygenase activating protein) stands at 100

The observed inhibitory rate (%) for Cc1cc2c(cc1N1Cc3c(Cl)ccnc3NC1=O)OC(c1ncccc1F)CC2 (stereo not shown) [Example 36] when tested with FLAP (5-lipoxygenase activating protein) stands at 115

The observed inhibitory rate (%) for O=C1Nc2cc(CO)ccc2CN1c1cc(OCc2c(F)cccc2F)ccc1CCc1ccccc1 [Example 257] when tested with FLAP (5-lipoxygenase activating protein) stands at 97
